Could you please report measured Mean relative activity for the items listed next?
- Tested on: K562 CRISPRi cells
- assayText: Constant region variant library pooled growth screen, K562
- Assay type: cell-based, human
- conditions: sgRNA constant region variants; activity relative to the un-modified constant region cr995
Give bare numbers.

# example entries with known answers
molecule="cr141 (nucleic acid, listed as DNA, chemistry not fully specified) guide: GTTTAAGAGCTAAGCTGGAAACAGCATAGCAAGTTTAAATAAGGCCAGTCCGTTATCAACTTGAGAAAGTGGCACCGAGTCGGTGCT" endpoint="Mean relative activity" measuredresult=0.9018
molecule="cr387 (nucleic acid, listed as DNA, chemistry not fully specified) guide: GTTTAAGAGCTAAGCTGGAAACAGCATAGCAAGTTTAAATAAGGCTCGTCCGTTATCAACTTGAAAAAGTGGCACCGAGTCGGTGCT" endpoint="Mean relative activity" measuredresult=0.9094
molecule="cr970 (nucleic acid, listed as DNA, chemistry not fully specified) guide: GTTTAAGAGCTAAGCTGGAAACAGCATAGCAAGTTTAAATAAGGCTAGTCCGTTATCAACTTGTTAAAGTGGCACCGAGTCGGTGCT" endpoint="Mean relative activity" measuredresult=0.9826
molecule="cr693 (nucleic acid, listed as DNA, chemistry not fully specified) guide: GTTTAAGAGCTAAGCTGGAAACAGCATAGCAAGTTTAAATAAGGCTAGTCCGTTATCAACTTGAAAAAGTGGCTCCAAGTTGGAGCT" endpoint="Mean relative activity" measuredresult=0.9369
molecule="cr577 (nucleic acid, listed as DNA, chemistry not fully specified) guide: GTTTAAGAGCTAAGCTGGAAACAGCATGGCAAGTTTAAATAGGGCTAGTCCGTTCTCAACTTGAAAAAGTGGCACCGAGTCGGTGCT" endpoint="Mean relative activity" measuredresult=0.9309

Provide Mean relative activity values for the following items, in order.
1. cr835 (nucleic acid, listed as DNA, chemistry not fully specified) guide: GTTTAAGAGCTAAGCTGGAAACAGCATAGCAAGTTTAAATAAGGCTAGTCCGTTATCAACTTGAAAAAGTGGCACCGAGTCGGCGCT
2. cr340 (nucleic acid, listed as DNA, chemistry not fully specified) guide: GTTTAAGAGCTAAGCTGGAAACAGCATAGCAAGTTTAAATAAGGCTAGTCCGTTATCAACTGGAAAAAGTGGCACCGAGTCGGTGCT

Completion:
[0.9515, 0.9853]
